Recorded values, source DBAASP.

Listed here: molecules with reported MIC for Staphylococcus aureus ATCC 25923.
One number for each entry, in µM.

Here is how some molecules turned out for MIC.
INSERT INTO assay_data (smiles, readoutvalue) VALUES
  ('CSCC[C@H](NC(=O)CNC(=O)[C@H](Cc1ccccc1)NC(=O)CN)C(=O)N[C@@H](C)C(=O)N[C@@H](CC(C)C)C(=O)N[C@@H](CCCCN)C(=O)N[C@@H](CC(C)C)C(=O)N[C@@H](CC(C)C)C(=O)N[C@@H](CCCCN)C(=O)N[C@@H](CCCCN)C(=O)N[C@H](C(=O)N[C@@H](CC(C)C)C(N)=O)C(C)C', 3.13),
  ('CC[C@H](C)[C@H](NC(=O)[C@H](Cc1c[nH]c2ccccc12)NC(=O)[C@H](Cc1c[nH]c2ccccc12)NC(=O)[C@H](CCCCN)NC(=O)[C@H](Cc1c[nH]c2ccccc12)NC(=O)[C@H](CCCN=C(N)N)NC(=O)[C@H](CCCN=C(N)N)NC(=O)[C@H](CCCCN)NC(=O)[C@@H](N)CC(C)C)C(=O)O', 2.4);

MIC on Staphylococcus aureus ATCC 25923 for CC[C@H](C)[C@H](N)C(=O)N[C@@H](CC(C)C)C(=O)NCC(=O)N[C@H](C(=O)N[C@H](C(=O)N[C@@H](CC(C)C)C(=O)NCC(=O)N[C@@H](CC(C)C)C(=O)N[C@@H](CC(C)C)C(=O)N[C@@H](CCCCN)C(=O)N[C@@H](CC(N)=O)C(=O)N[C@@H](CC(C)C)C(N)=O)[C@@H](C)CC)[C@@H](C)O is 8

---

- Tested on: Klebsiella pneumoniae ATCC 13883
assayMetric: MIC (µM)
Give bare numbers, in µM.

Entry under test: CC[C@H](C)[C@@H]1NC(=O)CNC(=O)[C@H](CCCN=C(N)N)NC(=O)[C@H](Cc2ccc(O)cc2)NC(=O)[C@@H](NC(=O)[C@@H](NC(=O)[C@H](CCCN=C(N)N)NC(=O)[C@H](Cc2ccccc2)NC(=O)[C@H](C)NC(=O)[C@H](Cc2c[nH]c3ccccc23)NC(=O)[C@@H](N)CCCCN)C(C)C)CSSC[C@@H](C(=O)N[C@@H](Cc2ccc(O)cc2)C(=O)N[C@@H](CCCN=C(N)N)C(=O)N[C@@H](CCCN=C(N)N)C(=O)N[C@@H](C)C(=O)N[C@@H](CCCN=C(N)N)C(=O)O)NC1=O [KWAFRVCYRGICYRRAR] . Its MIC was 0.454

---

- System: Lacticaseibacillus rhamnosus 7469
assayMetric: MIC

Here is how some compounds turned out for MIC.
INSERT INTO assay_data (smiles, assaymetric, readoutvalue) VALUES
  ('NC(=O)[C@H](CCCN=C(N)N)NC(=O)[C@H](CCCN=C(N)N)NC(=O)[C@H](Cc1c[nH]c2ccccc12)NC(=O)[C@H](Cc1c[nH]c2ccccc12)NC(=O)[C@H](Cc1c[nH]c2ccccc12)NC(=O)[C@@H](N)CCCN=C(N)N', 'MIC', '≥ 64 µM'),
  ('CC[C@H](C)[C@H](NC(=O)[C@H](CCCCN)NC(=O)[C@@H](NC(=O)[C@@H](N)Cc1c[nH]c2ccccc12)[C@@H](C)CC)C(=O)N[C@@H](Cc1c[nH]c2ccccc12)C(=O)N[C@@H](CCCCN)C(=O)N[C@@H](CCCCN)C(=O)N[C@H](C(=O)N[C@H](C(=O)N[C@@H](CCCCN)C(=O)N[C@@H](CCCCN)C(=O)N[C@@H](Cc1c[nH]c2ccccc12)C(=O)N[C@@H](CCCCN)C(=O)N[C@@H](CCCCN)C(=O)O)[C@@H](C)CC)[C@@H](C)CC', 'MIC', '≥ 128 µM'),
  ('CC[C@H](C)[C@H](NC(=O)[C@H](CC(C)C)NC(=O)[C@@H](NC(=O)[C@@H](N)CC(=O)O)[C@@H](C)CC)C(=O)N[C@H](C(=O)N[C@H](C(=O)NCC(=O)NCC(N)=O)C(C)C)[C@@H](C)CC', 'MIC', '≥ 64 µM');

MIC on Lacticaseibacillus rhamnosus 7469 for CC[C@H](C)[C@H](N)C(=O)N[C@@H](Cc1cnc[nH]1)C(=O)N[C@@H](Cc1cnc[nH]1)C(=O)N[C@H](C(=O)N[C@@H](Cc1cnc[nH]1)C(=O)N[C@@H](Cc1cnc[nH]1)C(=O)N[C@@H](Cc1cnc[nH]1)C(N)=O)[C@@H](C)CC is ≥ 64 µM
